Listing of pIC50 toward UniProtKB O95271, each taken from a published source.
pIC50: −log10 of the molar value.
# if value of pIC50 reaches 7, tag 1; if it stays below, tag 0

1. Cn1ccc2c(=O)[nH]c(N3CCOCC3)nc21: 0

In: Record O=C(NC12CCC(C(=O)Nc3ccc(F)cc3Cl)(CC1)CC2)c1cnn2cccnc12 ; criterion: pIC50 no lower than 7. Met?
Out: 0

In: Hi team, for Cn1ccc2c(=O)[nH]c(N3CCN(c4ccccc4Cl)CC3)nc21 , is the recorded pIC50 at or above 7?
Out: 1

In: Dear colleague, could you confirm whether Cn1ccc2c(=O)[nH]c(N3CCN(c4ccccc4F)CC3)nc21 has pIC50 at or above 7?
Out: 1

In: Textbook exercise: given the entry Cc1cc(C)n2ncc(C(=O)NC34CCC(C(=O)Nc5c(F)cc(F)cc5Cl)(CC3)CC4)c2n1 , state whether its pIC50 is greater than or equal to 7.
Out: 0

In: Dear colleague, could you confirm whether O=C(CN1CCC(n2c(=O)[nH]c3ccccc32)CC1)NCc1nc2c(c(=O)[nH]1)COCC2 has pIC50 at or above 7?
Out: 0

In: Please tell me: is the compound Cn1ccc2c(=O)[nH]c(N3CCN(c4ccncc4)CC3)nc21 at or over 7 in terms of pIC50?
Out: 0

In: Given the entry CC(C)N(Cc1nc2c(c(=O)[nH]1)COCC2)C(=O)CCc1ccccc1 , answer whether its pIC50 meets or surpasses 7.
Out: 0

In: Answer whether pIC50 of Cc1cccc2c(=O)[nH]c3c(c12)COC(C1CCN(C(=O)OC(C)(C)C)CC1)C3 (racemic) is greater than or equal to 7.
Out: 1

In: Answer whether pIC50 of Cc1nn2cccnc2c1C(=O)N[C@H]1CC[C@@]2(CCN(c3ccc(F)cc3Cl)C2=O)CC1 is greater than or equal to 7.
Out: 0

In: Please tell me: is the compound CC(C)(C)OC(=O)N1CCC(C2Cc3[nH]c(=O)c4ccccc4c3CO2)C1 (stereo not drawn) at or over 7 in terms of pIC50?
Out: 1

In: Is reported pIC50 greater than or equal to 7 here: O=C(NC12CCC(C(=O)Nc3cnccc3Cl)(CC1)CC2)c1cnc2cccnn12
Out: 0

In: Reported pIC50 at or above 7? Cn1ccc2c(=O)[nH]c(N3CCN(c4c(Cl)cncc4Cl)CC3)nc21
Out: 1

In: Hi team, for C=CCCn1ccc2c(=O)[nH]c(N3CCN(c4ccccc4Cl)CC3)nc21 , is the recorded pIC50 at or above 7?
Out: 0

In: Exam item: decide whether the reported pIC50 for O=C(CCc1cccc(O)c1)N(Cc1nc2c(c(=O)[nH]1)COCC2)Cc1cccs1 is at least 7.
Out: 0

In: Hello, I need to know if O=C(N[C@H]1CC[C@]2(CCN(c3ccc(F)cc3Cl)C2=O)CC1)c1cnn2cccnc12 has measured pIC50 not below 7. Thanks!
Out: 0

In: Entry Cc1cc(NC(=O)C23CCC(NC(=O)c4cnc5cccnn45)(CC2)CC3)c(Cl)cc1F : is its pIC50 no less than 7?
Out: 0

In: Test whether the compound COC(C)(C)CNC(=O)c1nc[nH]c1C(=O)N[C@H]1CC[C@H](C(=O)Nc2cnccc2Cl)CC1 records pIC50 of 7 or higher.
Out: 1

In: hey, is pIC50 for this one >= 7? O=C(NCC1CCCO1)c1nc[nH]c1C(=O)N[C@H]1CC[C@H](C(=O)Nc2c(F)cc(F)cc2Cl)CC1 (stereo partly drawn)
Out: 1

In: Kindly determine if pIC50 recorded for Cc1ccc(-c2nc3c(ccn3C)c(=O)[nH]2)cn1 is above or exactly 7.
Out: 0

In: Reported pIC50 reaches at least 7 for CC(C)(O)CNC(=O)c1nc[nH]c1C(=O)N[C@H]1CC[C@H](C(=O)Nc2cc(C(F)(F)F)ccc2Cl)CC1 ?
Out: 0

In: Kindly determine if pIC50 recorded for CN1c2ccccc2C(=O)NC1c1c[nH]nc1-c1ccc(OCC(F)(F)F)cc1 (stereo not drawn) is above or exactly 7.
Out: 1

In: Could you verify whether the entry O=C(N[C@H]1CC[C@H](C(=O)Nc2ccc(F)cc2Cl)CC1)c1cnc2ccccn12 shows pIC50 of no less than 7?
Out: 0

In: Tell me whether pIC50 is at least 7 here: CN(C)C(=O)c1nc[nH]c1C(=O)N[C@H]1CC[C@H](C(=O)Nc2ccc(F)cc2Cl)CC1
Out: 0

In: API: above_or_equal(metric=pIC50, cutoff=7) for item CNC(=O)c1[nH]cnc1C(=O)N[C@H]1CC[C@H](C(=O)Nc2ccc(F)cc2Cl)CC1(F)F (single isomer, unassigned)
Out: 0
